conditions: human gut metagenome, 24 h, 2 µM; note: call rule not given here
MEASURED ATTRIBUTE: Bacterial Biotransformation

CC(C(=O)O)c1ccc2c(c1)Cc1cccnc1O2 (stereo not given) :: Compound metabolized
CC(C)NCC(O)c1ccc(NS(C)(=O)=O)cc1 (stereo not given) :: Compound NOT metabolized
CCN(CC)C(C)CN1c2ccccc2Sc2ccccc21 (stereo not given) :: Compound metabolized
Cc1ccc(S(=O)(=O)NC(=O)NN2CC3CCCC3C2)cc1 (stereo not given) [GLICLAZIDE] :: Compound metabolized
CCOc1ccc(NC(C)=O)cc1 :: Compound NOT metabolized
CCc1nc(N)nc(N)c1-c1ccc(Cl)cc1 :: Compound metabolized
C=CCN1CC[C@]23c4c5ccc(O)c4O[C@H]2C(=O)CC[C@@]3(O)[C@H]1C5 :: Compound NOT metabolized
CN/C(=N/CCSCc1nc[nH]c1C)NC#N :: Compound metabolized
CC(CN(C)C)CN1c2ccccc2CCc2ccccc21.O=C(O)/C=C\C(=O)O (stereo not given) [TRIMIPRAMINE MALEATE] :: Compound metabolized
CN(C)CCC=C1c2ccccc2C=Cc2ccccc21 :: Compound metabolized

---

experiment: The drug is tested on WLS-310 corresponding to human gut metagenome with ENA study accession number: PRJEB37062 and ENA sample accession number: ERS12561785 for biotransformation under anaerobic condition. The drug concentrations were measured over 9 timepoints collected between 0 and 24 hours of incubation by liquid-chromatography-coupled mass spectrometry (LC–MS); details: 2 µM
MEASURED ATTRIBUTE: Bacterial Biotransformation

CC(=O)OCC(=O)[C@@]12N=C(C)O[C@@H]1C[C@H]1[C@@H]3CCC4=CC(=O)C=C[C@]4(C)[C@H]3[C@@H](O)C[C@@]12C :: Compound metabolized
CC[C@@H](CO)NC(=O)[C@@H]1C=C2c3cccc4c3c(cn4C)C[C@H]2N(C)C1.O=C(O)/C=C\C(=O)O [METHYSERGIDE MALEATE] :: Compound metabolized

---

details: human gut metagenome, 24 h, 2 µM
MEASURED ATTRIBUTE: Bacterial Biotransformation

CCN(CC)CC#CCOC(=O)C(O)(c1ccccc1)C1CCCCC1.Cl (stereo not given) [OXYBUTYNIN CHLORIDE] :: Compound metabolized
CN1C(=O)CCS(=O)(=O)C1c1ccc(Cl)cc1 (stereo not given) :: Compound NOT metabolized
Cc1ccnc2c1NC(=O)c1cccnc1N2C1CC1 :: Compound NOT metabolized
COC(=O)C1=C(C)NC(C)=C(C(=O)OC(C)C)C1c1cccc2nonc12 (stereo not given) :: Compound metabolized
NC12CC3CC(CC(C3)C1)C2 :: Compound NOT metabolized

---

assay: The drug is tested on Z-001 corresponding to mouse gut metagenome with ENA study accession number: PRJEB37062 and ENA sample accession number: ERS12561801 for biotransformation under anaerobic condition. The drug concentrations were measured over 9 timepoints collected between 0 and 24 hours of incubation by liquid-chromatography-coupled mass spectrometry (LC–MS); settings: 2 µM
MEASURED ATTRIBUTE: Bacterial Biotransformation

CCOc1ccc(NC(C)=O)cc1 :: Compound NOT metabolized
Cc1cn([C@H]2C[C@H](N=[N+]=[N-])[C@@H](CO)O2)c(=O)[nH]c1=O :: Compound metabolized
CN(C)C(=O)C(CCN1CCC(O)(c2ccc(Cl)cc2)CC1)(c1ccccc1)c1ccccc1 [LOPERAMIDE] :: Compound metabolized
CN1CCN(C(=O)O[C@H]2c3nccnc3C(=O)N2c2ccc(Cl)cn2)CC1 :: Compound NOT metabolized
NC(=O)N1c2ccccc2CC(=O)c2ccccc21 [OXCARBAZEPINE] :: Compound NOT metabolized
Clc1ccc(Cn2c(CN3CCCC3)nc3ccccc32)cc1 :: Compound metabolized
CNS(=O)(=O)Cc1ccc2[nH]cc(CCN(C)C)c2c1.O=C(O)CCC(=O)O [SUMATRIPTAN SUCCINATE] :: Compound metabolized
CC(C)(C(=O)O)c1ccc(C(O)CCCN2CCC(C(O)(c3ccccc3)c3ccccc3)CC2)cc1 (stereo not drawn) [FEXOFENADINE] :: Compound NOT metabolized
CN1CCN(C2=Nc3cc(Cl)ccc3Nc3ccccc32)CC1 :: Compound NOT metabolized
COc1cc2c(c(OC)c1OC)-c1ccc(OC)c(=O)cc1[C@@H](NC(C)=O)CC2 :: Compound NOT metabolized
CC(C(=O)O)c1ccc2c(c1)Cc1cccnc1O2 (stereo not drawn) :: Compound metabolized
CN1CCc2c(c3ccccc3n2Cc2ccccc2)C1.CN1CCc2c(c3ccccc3n2Cc2ccccc2)C1.O=S(=O)(O)c1cccc2c(S(=O)(=O)O)cccc12 :: Compound NOT metabolized
COc1ccc2c3c1O[C@H]1C[C@@H](O)C=C[C@@]31CCN(C)C2 :: Compound NOT metabolized
CN1C(C(=O)Nc2ccccn2)=C(O)c2sccc2S1(=O)=O :: Compound NOT metabolized
CNC(=C[N+](=O)[O-])NCCSCc1ccc(CN(C)C)o1 :: Compound metabolized
CCCC(=O)Nc1ccc(OCC(O)CNC(C)C)c(C(C)=O)c1 (stereo not drawn) :: Compound NOT metabolized
OC(CCN1CCCCC1)(c1ccccc1)C1CCCCC1 (stereo not drawn) :: Compound metabolized
CC(O)(CS(=O)(=O)c1ccc(F)cc1)C(=O)Nc1ccc(C#N)c(C(F)(F)F)c1 (stereo not drawn) [BICALUTAMIDE] :: Compound NOT metabolized
